test system: LoVo; assay: Cytotoxicity activity on LoVo/Dx human adenocarcinoma cell line after 144 hr of drug exposure; format: functional, cell-based
pIC50 values, listed per item
Scale note: pIC50 = -log10(concentration in M).

Example results:
# query: pIC50 | item COc1cccc2c1C(=O)c1c(O)c3c(c(O)c1C2=O)C[C@@](O)(C(=O)CO)C[C@@H]3O[C@H]1C[C@H](N)[C@H](O)[C@H](C)O1 | system: LoVo
5.62

Same question for COc1ccc2c(c1)c1nn(CCN(C)C)c3ccc4c(=O)n(CCN(C)C)c(=O)n2c4c13 please.
8.74

Do the same for CN(C)CCn1c(=O)c2ccc3c4c(nn3CCN(C)C)c3cc(O)ccc3n(c1=O)c24 please
6.77

Here is the next compound: CN(C)CCn1c(=O)c2ccc3c4c(nn3CCN(C)C)c3cc([N+](=O)[O-])ccc3n(c1=O)c24
7.89

Cool, now CN(C)CCn1c(=O)c2ccc3c4c(nn3CCN(C)C)c3cc(N)ccc3n(c1=O)c24
7.80

Continue with the compound presented below.
Notebook entry, LoVo assay: pIC50 of CN(C)CCn1c(=O)c2ccc3c4c(nn3CCN(C)C)c3ccccc3n(c1=O)c24 = ?
8.41
